procedure_text: Loss of bioactivity of the solid on storage at elevated temperatures
Format: physicochemical
assay_context: solid, 100° C., 48 hours
measure_name: degraded at 48 h

- compound: "N[C@@H](C(=O)NC1C(=O)N2C(C(=O)O)=C(CSc3cnn[nH]3)CSC12)c1ccc(O)cc1 (stereo partly shown) [propylene glycol solvate]"
  measure_name: "degraded at 48 h"
  test_value: "< 12%"

---

procedure_text: physchem
Format: physicochemical
assay_context: aqueous solution, pH 7.1
From the text: The above components are shaken to form an amber solution having a pH = 7.1. The solution was allowed to stand at room temperature and periodically assayed to determine stability.

- compound: "N[C@@H](C(=O)N[C@@H]1C(=O)N2C(C(=O)O)=C(CSc3c[nH]nn3)CS[C@H]12)c1ccc(O)cc1 [BL-S640 Sesquihydrate]"
  degraded at 1 h / %: 5.8
